Consider the following molecules; for each one, report its Emax.
molecular target: Human recombinant PDE10A (hPDE10A) (Homo sapiens); construct: His tag (inferred from metal chelate purification); made in house; host or cells: Sf9 insect cells (baculovirus); test: In vitro assay PDE10A, human clone (SPA, 3H-cAMP hydrolysis); type: biochemical; conditions: human clone by default (no (r) mark); read-out: hPDE10A2 or rPDE10A2 Emax
Sequence (Q9Y233 267-1055): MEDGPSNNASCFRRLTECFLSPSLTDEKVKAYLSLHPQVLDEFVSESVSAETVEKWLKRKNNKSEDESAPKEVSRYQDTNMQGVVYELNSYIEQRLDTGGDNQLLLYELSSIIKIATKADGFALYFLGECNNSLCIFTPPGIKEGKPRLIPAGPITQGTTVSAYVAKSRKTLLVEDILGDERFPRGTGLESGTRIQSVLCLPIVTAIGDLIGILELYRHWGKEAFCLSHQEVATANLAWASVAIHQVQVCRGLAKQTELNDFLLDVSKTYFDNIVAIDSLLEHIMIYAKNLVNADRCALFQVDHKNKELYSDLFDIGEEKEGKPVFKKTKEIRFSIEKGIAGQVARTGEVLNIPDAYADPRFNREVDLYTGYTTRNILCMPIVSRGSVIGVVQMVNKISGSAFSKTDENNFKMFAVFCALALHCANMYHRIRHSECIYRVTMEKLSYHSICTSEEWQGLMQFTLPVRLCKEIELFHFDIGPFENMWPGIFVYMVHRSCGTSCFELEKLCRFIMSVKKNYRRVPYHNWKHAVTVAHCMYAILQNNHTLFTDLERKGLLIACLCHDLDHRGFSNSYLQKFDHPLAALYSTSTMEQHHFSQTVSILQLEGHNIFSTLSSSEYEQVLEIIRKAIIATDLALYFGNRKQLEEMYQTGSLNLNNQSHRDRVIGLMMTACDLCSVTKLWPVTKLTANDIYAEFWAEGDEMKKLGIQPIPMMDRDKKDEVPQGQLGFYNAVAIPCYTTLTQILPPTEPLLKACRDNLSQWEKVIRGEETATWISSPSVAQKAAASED
The answer is to be given in %; state only the numeric part.

Answer with reported Emax of Cc1ccc2cc(C(=O)N3[C@H]4CC[C@H](c5cc(C(F)F)nc6ncnn56)[C@@H]3CC4)c(C)nc2c1 [Compound 298]
47

Answer with reported Emax of Cc1cc(C(=O)N2[C@H]3CC[C@H](c4cc(C(F)F)nc5ncnn45)[C@@H]2CC3)cc(C)c1C#N [Compound 299]
84

Answer with reported Emax of C[C@@H]1CCN(C(=O)c2cc(F)ccn2)C[C@H]1c1cc(C(F)F)nc2ncnn12 [Compound 250]
64

Answer with reported Emax of Cc1cc(C(=O)N2[C@H]3CC[C@H](c4cc(C(F)F)nc5ncnn45)[C@@H]2CC3)cc(C)c1F [Compound 346]
92

Answer with reported Emax of Cc1ccc(C(=O)N2[C@H]3CC[C@H](c4cc(C(F)F)nc5ncnn45)[C@@H]2CC3)cc1Cl [Compound 369]
93

Answer with reported Emax of O=C(c1ccc(C(F)(F)F)cc1)N1[C@H]2CC[C@H](c3cc(C(F)F)nc4ncnn34)[C@@H]1CC2 [Compound 340]
72

Answer with reported Emax of COc1cccc2c1OCC(C(=O)N1[C@H]3CC[C@H](c4cc(C(F)F)nc5ncnn45)[C@@H]1CC3)=C2 [Compound 296]
100

====

target: Human recombinant PDE3A (hPDE3A) (Homo sapiens, UniProt Q14432); construct: purchased Scottish Biomedical; host or cells: Sf9 insect cells; experiment: In vitro assay PDE3A (SPA, 3H-cAMP hydrolysis); format: biochemical; conditions: hPDE3B pIC50; read-out: pIC50 (converted);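 further: the method names PDE3A and the table heading PDE3B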
Sequence (Q14432 whole entry): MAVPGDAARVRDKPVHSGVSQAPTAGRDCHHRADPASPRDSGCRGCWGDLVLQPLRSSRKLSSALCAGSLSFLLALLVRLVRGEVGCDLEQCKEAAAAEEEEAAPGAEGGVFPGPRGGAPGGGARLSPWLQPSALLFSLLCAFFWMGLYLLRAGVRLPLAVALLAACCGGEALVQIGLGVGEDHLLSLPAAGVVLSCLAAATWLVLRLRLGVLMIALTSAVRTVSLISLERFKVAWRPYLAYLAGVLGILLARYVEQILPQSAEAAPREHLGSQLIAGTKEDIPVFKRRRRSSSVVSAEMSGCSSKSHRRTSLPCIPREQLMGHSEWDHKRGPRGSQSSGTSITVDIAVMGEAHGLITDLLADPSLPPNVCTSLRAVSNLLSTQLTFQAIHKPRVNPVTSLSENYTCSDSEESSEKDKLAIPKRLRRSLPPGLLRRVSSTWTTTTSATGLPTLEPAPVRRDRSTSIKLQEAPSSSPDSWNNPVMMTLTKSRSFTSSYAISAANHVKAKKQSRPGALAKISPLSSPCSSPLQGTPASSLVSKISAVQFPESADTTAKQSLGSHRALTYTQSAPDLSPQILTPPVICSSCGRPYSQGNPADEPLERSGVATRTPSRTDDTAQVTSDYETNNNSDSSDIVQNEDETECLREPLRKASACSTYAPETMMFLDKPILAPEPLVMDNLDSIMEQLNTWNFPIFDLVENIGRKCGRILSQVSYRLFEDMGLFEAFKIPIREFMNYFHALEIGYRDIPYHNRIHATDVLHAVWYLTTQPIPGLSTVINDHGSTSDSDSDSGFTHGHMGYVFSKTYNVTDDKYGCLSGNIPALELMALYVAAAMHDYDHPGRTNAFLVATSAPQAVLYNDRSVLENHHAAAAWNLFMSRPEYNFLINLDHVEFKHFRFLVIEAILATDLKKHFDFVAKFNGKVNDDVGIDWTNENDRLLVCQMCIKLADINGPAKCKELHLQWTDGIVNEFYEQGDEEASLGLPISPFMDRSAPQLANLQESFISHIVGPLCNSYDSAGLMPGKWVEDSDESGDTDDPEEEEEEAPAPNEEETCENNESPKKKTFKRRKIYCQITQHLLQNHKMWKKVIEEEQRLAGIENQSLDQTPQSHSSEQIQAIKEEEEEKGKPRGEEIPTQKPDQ
So basically, the class depends on measured IC50, and the ranges are range A: < 3 µM; range B: ≥ 3 µM and < 5 µM; range C: ≥ 5 µM

Any idea which band C[C@@H]1CCN(C(=O)c2nc3ccccc3o2)C[C@H]1c1cc(C(F)F)nc2ncnn12 [Compound 47] is in?
range B

Any idea which band Cc1cc([C@@H]2CN(C(=O)c3ccnc(Cl)c3F)CC[C@H]2C)n2ncnc2n1 [Compound 11] is in?
range B

Any idea which band Cc1c(C(=O)N2CC[C@@H](C)[C@H](c3cc(C(F)F)nc4ncnn34)C2)ccnc1Cl [Compound 159] is in?
range C

Any idea which band Cc1c(C(=O)N2CC[C@@H](C)[C@H](c3cc(C(F)F)nc4ncnn34)C2)oc2ccccc12 [Compound 48] is in?
range A

Any idea which band COc1nc(C)c(C(=O)N2CC[C@@H](C)[C@H](c3cc(C(F)F)nc4ncnn34)C2)s1 [Compound 185] is in?
range B

Any idea which band COc1cc(C(=O)N2CC[C@@H](C)[C@H](c3cc(C(F)F)nc4ncnn34)C2)cc(C2CC2)n1 [Compound 113] is in?
range A

Any idea which band Cc1nc2cccc(C(=O)N3[C@H]4CC[C@H](c5cc(C(F)F)nc6ncnn56)[C@@H]3CC4)c2o1 [Compound 305] is in?
range C

Any idea which band Cc1cc(C(=O)N2CC[C@@H](C)[C@H](c3cc(C(F)F)nc4ncnn34)C2)c(F)c(C2CC2)n1 [Compound 278] is in?
range A

Any idea which band Cc1cc(C(=O)N2CC[C@@H](C)[C@H](c3cc(C(F)F)nc4ncnn34)C2)cc(C(C)C)n1 [Compound 101] is in?
range B

Any idea which band Cc1cc([C@@H]2CN(C(=O)c3ccc4ncsc4c3)CC[C@H]2C)n2ncnc2n1 [Compound 2a] is in?
range A

Any idea which band Cc1cc(C(=O)N2[C@H]3CC[C@H](c4cc(C(F)F)nc5ncnn45)[C@@H]2CC3)cc(F)c1F [Compound 344] is in?
range C

Any idea which band Cc1cc(C(=O)N2CC[C@@H](C)[C@H](c3cc(C(F)F)nc4ncnn34)C2)cc(Cl)n1 [Compound 83] is in?
range C

Any idea which band Cc1c(C(=O)N2[C@H]3CC[C@@H]2[C@H](c2cc(C(F)F)nc4ncnn24)CC3)oc2ccccc12 [Compound 140] is in?
range C

Any idea which band C[C@@H]1CCN(C(=O)c2ccc(C3CC3)c(F)c2)C[C@H]1c1cc(C(F)F)nc2ncnn12 [Compound 103] is in?
range A

Any idea which band C[C@@H]1CCN(C(=O)c2cc(Cl)cnc2C(F)(F)F)C[C@H]1c1cc(C(F)F)nc2ncnn12 [Compound 39] is in?
range C

Any idea which band C[C@@H]1CCN(C(=O)c2ccncn2)C[C@H]1c1cc(C(F)F)nc2ncnn12 [Compound 256] is in?
range C

Any idea which band Cc1nc(C(F)(F)F)cc(C(=O)N2CC[C@@H](C)[C@H](c3cc(C(F)F)nc4ncnn34)C2)c1F [Compound 394] is in?
range C

Any idea which band C[C@@H]1CCN(C(=O)c2nccnc2Cl)C[C@H]1c1cc(C(F)F)nc2ncnn12 [Compound 237] is in?
range C

Any idea which band CCCC[C@H]1CCN(C(=O)c2cc(C)nc(C)c2)C[C@H]1c1cc(C(F)F)nc2ncnn12 (mixture of isomers) [Compound 219] is in?
range C

Any idea which band Cc1nc(C(=O)N2CC[C@H](C)[C@H](c3cc(C(F)F)nc4ncnn34)C2)ccc1F [Compound 223] is in?
range C

Any idea which band Cc1cc(C(=O)N2CC[C@@H](C)[C@H](c3cc(C(F)F)nc4ncnn34)C2)c(C)s1 [Compound 65] is in?
range C

Any idea which band Cc1cc(C)cc(C(=O)N2CC[C@H](C)[C@@H](c3cc(C(F)F)nc4ncnn34)C2)c1 [Compound 214] is in?
range C

Any idea which band O=C(c1nc2ccccc2o1)N1[C@H]2CC[C@H](c3cc(C(F)F)nc4ncnn34)[C@@H]1CC2 [Compound 304] is in?
range C

Any idea which band C[C@@H]1CCN(C(=O)c2cc(Cl)cc(Cl)c2)C[C@H]1c1cc(C(F)F)nc2ncnn12 [Compound 334] is in?
range A

Any idea which band C[C@@H]1CCN(C(=O)c2cnc(Br)s2)C[C@H]1c1cc(C(F)F)nc2ncnn12 [Compound 182] is in?
range C

====

molecular target: Human recombinant PDE2A (hPDE2A) (Homo sapiens); construct: His tag (inferred from metal chelate purification); made in house; host or cells: Sf9 insect cells (baculovirus); assay: In vitro assay PDE2A (SPA, 3H-cGMP hydrolysis); format: biochemical; conditions: read-out: hPDE2A Emax
result-type: Emax
Remember to put the unit after the number in your answer.

Answer with reported Emax of Cc1cc([C@@H]2CN(C(=O)c3cc4c(nc3Cl)CCCC4)CC[C@H]2C)n2ncnc2n1
101%

Answer with reported Emax of CCCC[C@@H]1CCN(C(=O)c2cc(C)nc(C)c2)C[C@H]1c1cc(C(F)F)nc2ncnn12 (mixture of isomers) [Compound 44]
100%

Answer with reported Emax of Cc1cnoc1C(=O)N1CC[C@@H](C)[C@H](c2cc(C(F)F)nc3ncnn23)C1
99%

Answer with reported Emax of C[C@]1(c2cc(C(F)F)nc3ncnn23)CCCN(C(=O)c2ccc3occc3c2)C1 (single isomer, unassigned)
57%

Answer with reported Emax of Cc1cnc(C(=O)N2CC[C@@H](C)[C@H](c3cc(C(F)F)nc4ncnn34)C2)cn1
99%

Answer with reported Emax of O=C(c1cccc2ncccc12)N1[C@H]2CC[C@H](c3cc(C(F)F)nc4ncnn34)[C@@H]1CC2
98%

Answer with reported Emax of COc1c(C)cc(C(=O)N2CC[C@@H](C)[C@@](F)(c3cc(C(F)F)nc4ncnn34)C2)cc1C
81%

====

molecular target: Human recombinant PDE2A (hPDE2A) (Homo sapiens, UniProt O00408); construct: His tag (inferred from metal chelate purification); made in house; host or cells: Sf9 insect cells (baculovirus); assay: In vitro assay PDE2A (SPA, 3H-cGMP hydrolysis); type: biochemical; settings: read-out: hPDE2A Emax
Sequence (O00408 whole entry): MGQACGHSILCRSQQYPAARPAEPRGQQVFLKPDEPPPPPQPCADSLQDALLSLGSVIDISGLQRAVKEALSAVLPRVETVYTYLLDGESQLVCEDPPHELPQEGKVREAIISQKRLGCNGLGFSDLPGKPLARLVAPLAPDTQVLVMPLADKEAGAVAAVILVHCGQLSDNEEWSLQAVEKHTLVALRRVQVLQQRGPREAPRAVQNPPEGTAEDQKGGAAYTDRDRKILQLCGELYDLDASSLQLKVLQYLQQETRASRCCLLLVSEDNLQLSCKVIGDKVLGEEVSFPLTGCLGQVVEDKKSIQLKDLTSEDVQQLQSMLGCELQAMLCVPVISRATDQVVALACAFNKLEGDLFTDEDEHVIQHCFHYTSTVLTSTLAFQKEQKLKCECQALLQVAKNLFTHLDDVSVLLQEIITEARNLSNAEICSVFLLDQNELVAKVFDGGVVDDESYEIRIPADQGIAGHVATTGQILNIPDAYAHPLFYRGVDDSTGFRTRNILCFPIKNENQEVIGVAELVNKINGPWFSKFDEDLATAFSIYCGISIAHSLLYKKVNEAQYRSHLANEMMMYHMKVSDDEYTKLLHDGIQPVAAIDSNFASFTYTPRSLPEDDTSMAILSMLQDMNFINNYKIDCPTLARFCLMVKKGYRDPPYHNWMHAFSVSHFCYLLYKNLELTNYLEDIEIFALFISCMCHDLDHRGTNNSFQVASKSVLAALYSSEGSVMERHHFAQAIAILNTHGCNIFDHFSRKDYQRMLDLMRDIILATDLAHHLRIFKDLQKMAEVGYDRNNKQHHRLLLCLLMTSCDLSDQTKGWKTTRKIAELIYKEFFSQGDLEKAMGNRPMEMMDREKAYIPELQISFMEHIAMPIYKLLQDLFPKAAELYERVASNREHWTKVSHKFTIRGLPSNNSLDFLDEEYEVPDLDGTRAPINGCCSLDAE
Consider the following molecules; for each one, report its Emax.
The answer is to be given in %; state only the numeric part.

Answer with reported Emax of COc1cc(C(=O)N2CC[C@@H](C)[C@H](c3cc(C)nc4ncnn34)C2)c(C(F)(F)F)cn1 [Compound 37]
100

Answer with reported Emax of Cc1cc(C(=O)N2[C@H]3CC[C@H](c4cc(C(F)F)nc5ncnn45)[C@@H]2CC3)c(F)cn1 [Compound 86]
100

Answer with reported Emax of C[C@@H]1CCN(C(=O)c2ccc(Cl)cn2)C[C@H]1c1cc(C(F)F)nc2ncnn12 [Compound 154]
100

Answer with reported Emax of CC1(c2cc(C(F)F)nc3ncnn23)CCCN(C(=O)c2ccc3occc3c2)C1 (centres unmarked) [Compound 201]
61

Answer with reported Emax of C[C@@H]1CCN(C(=O)c2ccncc2Cl)C[C@H]1c1cc(C(F)F)nc2ncnn12 [Compound 235]
98

Answer with reported Emax of Cc1cc([C@@H]2CN(C(=O)c3cc4ccccc4o3)CC[C@H]2C)n2ncnc2n1 [Compound 8]
100

Answer with reported Emax of Cn1ccc2cc(C(=O)N3[C@H]4CC[C@H](c5cc(C(F)F)nc6ncnn56)[C@@H]3CC4)ccc21 [Compound 295]
101

Answer with reported Emax of O=C(c1nc2ccccc2o1)N1[C@H]2CC[C@H](c3cc(C(F)F)nc4ncnn34)[C@@H]1CC2 [Compound 304]
100

Answer with reported Emax of CCCOc1cccnc1C(=O)N1CC[C@@H](C)[C@H](c2cc(C(F)F)nc3ncnn23)C1 [Compound 246]
98

Answer with reported Emax of Cc1c(C(=O)N2[C@H]3CC[C@H](c4cc(C(F)F)nc5ncnn45)[C@@H]2CC3)oc2ccccc12 [Compound 273]
100

Answer with reported Emax of O=C(c1cc(F)cc(F)c1)N1[C@H]2CC[C@H](c3cc(C(F)F)nc4ncnn34)[C@@H]1CC2 [Compound 341]
97

Answer with reported Emax of COc1c(C)cc(C(=O)N2CC[C@@H](C)[C@](F)(c3cc(C(F)F)nc4ncnn34)C2)cc1C [Compound 74]
101

Answer with reported Emax of CCCC[C@H]1CCN(C(=O)c2cc(C)nc(C)c2)C[C@@H]1c1cc(C(F)F)nc2ncnn12 (single isomer, unassigned) [Compound 46]
100

Answer with reported Emax of Cc1cc(C(=O)N2[C@H]3CC[C@@H]2[C@H](c2cc(C(F)F)nc4ncnn24)CC3)cc(C2CC2)n1 [Compound 274]
97

Answer with reported Emax of COc1cc(C(=O)N2CC[C@@H](C)[C@H](c3cc(C(F)F)nc4ncnn34)C2)cc(C(C)C)n1 [Compound 122]
100

Answer with reported Emax of C[C@@H]1CCN(C(=O)c2cc(C3CC3)ncc2F)C[C@H]1c1cc(C(F)F)nc2ncnn12 [Compound 269]
101

Answer with reported Emax of Cc1cc(C(=O)N2CCC[C@](C)(c3cc(C(F)F)nc4ncnn34)C2)cc(C)n1 (single isomer, unassigned) [Compound 211]
3

Answer with reported Emax of C[C@@H]1CCN(C(=O)c2nccnc2N)C[C@H]1c1cc(C(F)F)nc2ncnn12 [Compound 261]
95

Answer with reported Emax of Cc1cc(C(=O)N2CC[C@@H](C)[C@H](c3cc(C(F)F)nc4ncnn34)C2)cc(C2CC2)n1 [Compound 93]
101

Answer with reported Emax of C[C@@H]1CCN(C(=O)c2ccc(F)c(C(F)F)c2)C[C@H]1c1cc(C(F)F)nc2ncnn12 [Compound 191]
100

Answer with reported Emax of Cc1cc2cc(C(=O)N3[C@H]4CC[C@H](c5cc(C(F)F)nc6ncnn56)[C@@H]3CC4)ccc2n1C [Compound 373]
100

Answer with reported Emax of O=C(c1ccc2sccc2c1)N1[C@H]2CC[C@H](c3cc(C(F)F)nc4ncnn34)[C@@H]1CC2 [Compound 372]
100

Answer with reported Emax of Cn1cc(C(=O)N2[C@H]3CC[C@H](c4cc(C(F)F)nc5ncnn45)[C@@H]2CC3)c2ccccc21 [Compound 297]
97

Answer with reported Emax of O=C(c1cc(OC(F)F)cc(C2CC2)c1)N1[C@H]2CC[C@H](c3cc(C(F)F)nc4ncnn34)[C@@H]1CC2 [Compound 352]
100

Answer with reported Emax of C[C@@H]1CCN(C(=O)c2ncccc2N)C[C@H]1c1cc(C(F)F)nc2ncnn12 [Compound 233]
94

Answer with reported Emax of Cc1c(C(=O)N2CC[C@@H](C)[C@H](c3cc(C(F)F)nc4ncnn34)C2)ccnc1Cl [Compound 159]
100

Answer with reported Emax of Cc1cc(C(=O)N2[C@H]3CC[C@H](c4cc(C(F)F)nc5ncnn45)[C@@H]2CC3)cc(C)c1F [Compound 346]
100

Answer with reported Emax of O=C(c1ccc2ncccc2c1)N1[C@H]2CC[C@H](c3cc(C(F)F)nc4ncnn34)[C@@H]1CC2 [Compound 311]
96

Answer with reported Emax of Cc1nc(C2CC2)cc(C(=O)N2CC[C@@H](C)[C@H](c3cc(C(F)F)nc4ncnn34)C2)c1F [Compound 279]
99
